B1: Pistol ribozyme (parent)
chain: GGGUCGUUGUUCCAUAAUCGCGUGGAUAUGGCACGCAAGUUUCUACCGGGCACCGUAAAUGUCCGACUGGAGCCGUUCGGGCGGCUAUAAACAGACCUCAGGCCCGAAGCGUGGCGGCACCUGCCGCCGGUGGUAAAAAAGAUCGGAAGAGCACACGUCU

# Variants of: B1
# TEST NAME: aptazyme ON/OFF ratio, guanine; higher = stronger switching; co-transcriptional cleavage with and without guanine
RECORDED METRIC: aptazyme ON/OFF ratio

> print(dat)
                           mutation        recorded.metric  endpoint.result
 1       U7A U8G G9A U11C C12G C13A  aptazyme ON/OFF ratio             1.32
 2               U8G U10A U11A C12A  aptazyme ON/OFF ratio             1.12
 3           U7G G9A U10G C12A C13G  aptazyme ON/OFF ratio             1.15
 4          U8G U10C U11C C12G C13G  aptazyme ON/OFF ratio             1.09
 5      U8A G9A U10G U11G C12G C13U  aptazyme ON/OFF ratio             1.05
 6                U7C G9C U10A C12A  aptazyme ON/OFF ratio             1.04
 7                U7C G9C U10G C12G  aptazyme ON/OFF ratio             1.13
 8                 U7A U8A G9U U10A  aptazyme ON/OFF ratio             1.25
 9           U7G G9U U11G C12U C13A  aptazyme ON/OFF ratio             1.31
10                    U7C U11G C13G  aptazyme ON/OFF ratio             1.03
11                         G9C C12A  aptazyme ON/OFF ratio             1.38
12                 U7G U8C G9A C13A  aptazyme ON/OFF ratio             1.09
13                 U7A U8C G9C U11A  aptazyme ON/OFF ratio             1.11
14  U7A U8C G9U U10G U11G C12A C13G  aptazyme ON/OFF ratio             1.11
15       U7C U8G G9U U10G U11A C13U  aptazyme ON/OFF ratio             1.12
16  U7A U8G G9A U10C U11A C12A C13G  aptazyme ON/OFF ratio             1.11
17       U7A U8G G9A U10G C12U C13A  aptazyme ON/OFF ratio             1.43
18  U7C U8C G9U U10G U11C C12G C13U  aptazyme ON/OFF ratio              1.1
19               U7A U11C C12G C13U  aptazyme ON/OFF ratio             1.23
20  U7A U8G G9A U10C U11C C12G C13U  aptazyme ON/OFF ratio             1.04
21  U7A U8G G9U U10G U11C C12G C13A  aptazyme ON/OFF ratio             1.11
22      U7G U8G U10G U11G C12U C13U  aptazyme ON/OFF ratio             1.32
23                U7A G9U C12U C13G  aptazyme ON/OFF ratio             1.16
24           U7C U8C U11C C12A C13A  aptazyme ON/OFF ratio              1.3
25                      U7C U8A G9A  aptazyme ON/OFF ratio             1.22
26               G9A U11G C12A C13A  aptazyme ON/OFF ratio             1.18
27           U8G G9C U10C C12G C13U  aptazyme ON/OFF ratio             1.08
28       U7C U8G G9U U11A C12A C13A  aptazyme ON/OFF ratio             1.32
29                 U7A U8C G9A U11G  aptazyme ON/OFF ratio             1.28
30  U7A U8C G9C U10G U11C C12G C13A  aptazyme ON/OFF ratio             1.18
31                U7A U8C C12U C13G  aptazyme ON/OFF ratio             1.27
32               U7C U10G U11A C13A  aptazyme ON/OFF ratio              1.1
33               U8A U10C U11C C13U  aptazyme ON/OFF ratio             1.02
34      U8G G9A U10A U11A C12U C13A  aptazyme ON/OFF ratio             1.36
35       U7A U8C G9A U10A C12G C13U  aptazyme ON/OFF ratio             1.28
36            U7A U8G G9U U11G C13A  aptazyme ON/OFF ratio             1.28
37           U8G G9C U10A C12U C13A  aptazyme ON/OFF ratio             1.15
38            U7A U8C G9A C12U C13U  aptazyme ON/OFF ratio              1.1
39  U7A U8C G9A U10C U11C C12A C13U  aptazyme ON/OFF ratio             1.04
40               U7C U10A U11C C13G  aptazyme ON/OFF ratio             1.01
41      U7C G9C U10A U11G C12U C13A  aptazyme ON/OFF ratio             1.12
42                U7C G9U U11C C13U  aptazyme ON/OFF ratio             1.05
43       U7G U8G G9A U11A C12A C13G  aptazyme ON/OFF ratio             1.14
44       U7C U8G G9A U10C U11G C12A  aptazyme ON/OFF ratio             1.07
45                    U7A U11C C13U  aptazyme ON/OFF ratio             1.21
46            U7C U8G G9C C12A C13U  aptazyme ON/OFF ratio             1.31
